Data origin: patent US10675360B2

experiment: Tissue distribution of SDC-TRAPs in tumor-bearing mice (plasma, tumor, heart); settings: mouse, in vivo, tissue distribution of SDC-TRAP-0076; 24 h; read-out: Tumor/Plasma Ratio
endpoint label: Kp

Prompt: # lookup: Kp of CCNC(=O)c1nnc(-c2cc(C(C)C)c(O)cc2O)n1-c1ccc(CN2CCC(C(=O)N3CCC(C(=O)OC4(CC)C(=O)OCc5c4cc4n(c5=O)Cc5c-4nc4ccc(O)cc4c5CC)CC3)CC2)cc1 (stereo not shown) [SDC-TRAP-0076]
Completion: 20.4

====

Experiment: Tissue distribution of ganetespib in female CD-1 nu/nu mice bearing RERF human NSCLC xenografts
Type: in vivo, mouse
Details: ganetespib 50 mg/kg IV; 5 min
Protocol: To confirm the distribution of ganetespib in blood, livers, kidneys, brains, hearts, lungs and tumors after IV administration of ganetespib to female CD-1 nu/nu mice bearing RERF human NSCLC xenografts, and to examine metabolic profiles of ganetespib in plasma, red blood cells, and above tissues. Animals: female CD-1 nu/nu mice bearing RERF human NSCLC xenografts (N=3/group) Formulation: 10% DMSO, 18% Cremophor RH40, 3.6% dextrose solution (DRD) Bleeding time points: 5 min, 6, 24 hr […]
endpoint label: Concentration in tumor (nM)
Express it in nM; write the number only.

Prompt: Endpoint output: Concentration in tumor of CC(C)c1cc(-c2n[nH]c(=O)n2-c2ccc3c(ccn3C)c2)c(O)cc1O [ganetespib] . Value?
Completion: 2350
